B1: Zinc finger MYM-type protein 3, residues 405 to 444; numbered along this chain, Q14202 (parent)
chain: DATRCSICQKTGEVLHEVSNGSVVHRLCSDSCFSKFRANK

Variants of: B1
experimentNotes: abundance fitness (aPCA) (normalised: wild type 0, dead -1); higher = more abundant; growth selection in yeast, the domain comes from the species named
testContext: Homo sapiens
# cutoff -0.2 applies to abundance fitness; >= gives Condition met, < gives Condition not met

> print(dat)
   mutantname              group
1        F33R      Condition met
2        K10Y  Condition not met
3        C28A  Condition not met

Confirm if abundance fitness reported for the variant `C8G` is -0.2 or above. Condition not met

// query: `L27C` Condition met

// query: `G21S` Condition met
